EXPERIMENTAL TARGET: Pyk2 kinase domain residues 419 to 691 (Homo sapiens, UniProt Q14289)
Sequence (Q14289 420-691): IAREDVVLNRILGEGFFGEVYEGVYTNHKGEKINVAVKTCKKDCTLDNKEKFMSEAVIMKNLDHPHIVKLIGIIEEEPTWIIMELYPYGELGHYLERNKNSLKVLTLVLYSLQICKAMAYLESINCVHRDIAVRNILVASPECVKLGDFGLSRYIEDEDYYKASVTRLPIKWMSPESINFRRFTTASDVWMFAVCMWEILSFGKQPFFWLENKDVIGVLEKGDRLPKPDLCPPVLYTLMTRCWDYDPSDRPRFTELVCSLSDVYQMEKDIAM
READOUT: Kd (µM)
Unit µM implied. Number only.

Notebook: Nc1ncnc2c1ncn2[C@@H]1O[C@H](COP(=O)(O)OP(=O)(O)OP(=O)(O)O)[C@@H](O)[C@H]1O , Kd read as 7.34

* * *

EXPERIMENTAL TARGET: Pyk2 (Homo sapiens, UniProt Q14289)
Construct: the Pyk2 was the kinase domain-(His)6 fusion; (His)6 (C)
PROCEDURE SUMMARY: Pyk-2 inhibitory activity (kinase ELISA, poly(Glu:Tyr))
pIC50: −log10 of the molar value.
READOUT: pIC50

Notebook: c1cnc2[nH]ccc2c1 , pIC50 read as < 3.70

* * *

# collection of pIC50 values tested on Pyk2 kinase domain residues 419 to 691 (Homo sapiens)
When answering, recall that pIC50 equals minus log10 of the concentration in mol/L, and write that number alone.

Notebook: Nc1ncnc2c1ncn2C1OC(COP(=O)(O)OP(=O)(O)NP(=O)(O)O)C(O)C1O (centres unmarked) [AMPPNP, 5′-adenylylimidodiphosphate] , pIC50 read as 4.74

Notebook: Nc1ncnc2c1ncn2[C@@H]1O[C@H](COP(=O)(O)O)[C@@H](O)[C@H]1O , pIC50 read as 4.10

Notebook: Nc1ncnc2c1ncn2[C@@H]1O[C@H](COP(=O)(O)OP(=O)(O)CP(=O)(O)O)[C@@H](O)[C@H]1O , pIC50 read as 2.11

Notebook: Nc1ncnc2c1ncn2[C@@H]1O[C@H](COP(=O)(O)OP(=O)(O)OP(O)(O)=S)[C@@H](O)[C@H]1O , pIC50 read as 4.87

Notebook: Nc1ncnc2c1ncn2[C@@H]1O[C@H](COP(=O)(O)OP(=O)(O)O)[C@@H](O)[C@H]1O , pIC50 read as 4.83
